Provide the recorded shrunken log2 fold change for the entries that follow.
- Test system: Escherichia coli TOP10;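 note: peptides expressed intracellularly from a pBAD plasmid library in pooled LB shake-flask culture, induced with 0.3% L-arabinose, DNA abundance read by NGS, three biological replicates, DESeq2 with apeglm shrinkage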
- TEST DESCRIPTION: shrunken log2 fold change of peptide-encoding DNA abundance (4.5 h post-induction vs induction); higher = less antimicrobial activity (less host growth inhibition)
- MEASUREMENT CONDITIONS: time post-induction: 4.5 h; library: site-saturation at positions 5, 18, 19, 20
Give bare numbers.

In the examples that follow, each entry is paired with its recorded shrunken log2 fold change.
>>> df
            sequence_entry               tested_on  observed_value
0  RRIRNRPPRLPRPRPRPFFCPRP  Escherichia coli TOP10           0.118
1  RRIRARPPRLPRPRPRPDWAPRP  Escherichia coli TOP10           0.524
2  RRIRKRPPRLPRPRPRPCDMPRP  Escherichia coli TOP10        -0.00141

Parameters: items (list). Returns: shrunken log2 fold change for each item.
1. RRIRNRPPRLPRPRPRPAECPRP
2. RRIRHRPPRLPRPRPRPSCQPRP
3. RRIRSRPPRLPRPRPRPQQWPRP
4. RRIRYRPPRLPRPRPRPNICPRP
5. RRIRFRPPRLPRPRPRPVQKPRP
6. RRIRKRPPRLPRPRPRPCNLPRP
7. RRIRERPPRLPRPRPRPGGMPRP

OUT:
[0.0508, -0.31, -0.175, -0.204, 0.00252, 0.0104, -0.02]

// for each sequence below, give its shrunken log2 fold change
1. RRIRGRPPRLPRPRPRPWLEPRP
2. RRIRQRPPRLPRPRPRPKIVPRP
3. RRIRSRPPRLPRPRPRPMFMPRP
4. RRIRDRPPRLPRPRPRPKDWPRP
5. RRIRVRPPRLPRPRPRPEGYPRP
6. RRIRHRPPRLPRPRPRPRAEPRP

OUT:
[0.303, -0.113, -0.223, 0.601, -0.0123, 0.12]

Each of the following entries comes with a recorded value; kindly state shrunken log2 fold change for each.
1. RRIRDRPPRLPRPRPRPIIFPRP
2. RRIRHRPPRLPRPRPRPACFPRP
3. RRIRERPPRLPRPRPRPVQHPRP
4. RRIRHRPPRLPRPRPRPEQFPRP

OUT:
-0.00292
-0.126
-0.402
0.000995

Hey, just so you know, these numbers are from the supplement of paper PMC9112550.
